TGI values, listed per item
Test system: HOP-62 NSCLC
Assay: NCI tumour cell line growth inhibition, 48 h

Here's what some known entries look like.
HOP-62 NSCLC assay, molecule `COc1ccc(/C=C2\Sc3nnc(CNc4ccc(Cl)cc4)n3N=C2c2cc(F)c(Cl)cc2Cl)cc1OC` , recorded TGI = > 100 µM

HOP-62 NSCLC assay, molecule `COC(=O)N/N=C(/CCC(=O)Nc1ccc(C)c(C)c1)CC(=O)C(C)(C)C` , recorded TGI = > 100 µM

HOP-62 NSCLC assay, molecule `COc1ccc2c(c1)[n+]([O-])c(-c1ccc(C)cc1)c(N)[n+]2[O-]` , recorded TGI = > 100 µM

HOP-62 NSCLC assay, molecule Oc1ccccc1C1=NOC(c2ccc(C(F)(F)F)cc2)C1 (stereo not drawn) , recorded TGI = > 50 µM

HOP-62 NSCLC assay, molecule CC12CO[C@@](C)(CC(S(=O)(=O)c3ccccc3)C1)O2 (stereo partly drawn) , recorded TGI = > 100 µM

New cases:
HOP-62 NSCLC assay, molecule `Clc1ccc2nc(-c3ccccc3)nc(Cl)c2c1` , recorded TGI = 79.9 µM

HOP-62 NSCLC assay, molecule Cc1cc(=O)[nH]c(NNC(C#N)c2c(O)ccc3ccccc23)n1 (stereo not drawn) , recorded TGI = 73.8 µM

HOP-62 NSCLC assay, molecule Cc1ccc(C(SCC(N)C(=O)O)(c2ccccc2)c2ccccc2)cc1 (stereo not drawn) , recorded TGI = > 49.7 µM

Where these numbers come from: PubChem BioAssay (NCI)
